Value source: patent US20250171495A1

molecular target: matriptase (Homo sapiens, UniProt Q9Y5Y6); construct: purchased R&D Systems 3946-SEB-010; test: Fluorogenic kinetic enzyme inhibitor assay, matriptase; assay type: biochemical; conditions: read-out: Matriptase IC50
Sequence (Q9Y5Y6 615-855 limits assumed): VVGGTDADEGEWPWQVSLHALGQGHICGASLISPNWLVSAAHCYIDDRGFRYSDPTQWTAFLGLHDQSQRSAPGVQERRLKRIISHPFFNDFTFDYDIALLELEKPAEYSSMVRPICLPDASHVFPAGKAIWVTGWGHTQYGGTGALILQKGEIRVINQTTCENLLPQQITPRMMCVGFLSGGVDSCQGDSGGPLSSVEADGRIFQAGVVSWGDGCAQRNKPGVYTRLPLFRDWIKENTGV
pIC50: −log10 of the molar value.
This listing pairs compounds with measured pIC50.

{"compound": "N=C(N)NCCC[C@H](NC(=O)[C@H](Cc1ccccc1)NC(=O)[C@H](CCC(N)=O)NC(=O)c1ccccc1)C(=O)c1nc2ccccc2s1 [CA1043]", "system.tested": "matriptase (Homo sapiens, UniProt Q9Y5Y6)", "censoring.qualifier": "=", "pIC50": 9.06}
{"compound": "CC(=O)N[C@@H](CO)C(=O)NCc1cccc(CC(=O)N[C@@H](CC(C)C)C(=O)N[C@@H](CCCNC(=N)N)C(=O)c2nc3ccccc3s2)c1 [MM1132-2]", "system.tested": "matriptase (Homo sapiens, UniProt Q9Y5Y6)", "censoring.qualifier": "=", "pIC50": 7.51}
{"compound": "N=C(N)NCCC[C@H](NC(=O)[C@H](Cc1cccc2ccccc12)NC(=O)OCC1c2ccccc2-c2ccccc21)C(=O)c1nc2ccccc2s1 [MF1144]", "system.tested": "matriptase (Homo sapiens, UniProt Q9Y5Y6)", "censoring.qualifier": "<", "pIC50": 4.70}
{"compound": "CCC[C@H](NC(=O)OCC1c2ccccc2-c2ccccc21)C(=O)N[C@@H](CCCNC(=N)N)C(=O)c1nc2ccccc2s1 [MF1150]", "system.tested": "matriptase (Homo sapiens, UniProt Q9Y5Y6)", "censoring.qualifier": "=", "pIC50": 8.26}
{"compound": "N=C(N)NCCC[C@H](NC(=O)[C@@H](NC(=O)OCc1ccccc1)C1Cc2ccccc2C1)C(=O)c1nc2ccccc2s1 [MF2008]", "system.tested": "matriptase (Homo sapiens, UniProt Q9Y5Y6)", "censoring.qualifier": "=", "pIC50": 7.12}
{"compound": "N=C(N)NCCC[C@H](NC(=O)[C@H](CCCCOCc1ccccc1)NC(=O)OCC1c2ccccc2-c2ccccc21)C(=O)c1nc2ccccc2s1 [MF1165]", "system.tested": "matriptase (Homo sapiens, UniProt Q9Y5Y6)", "censoring.qualifier": "=", "pIC50": 7.51}

---

Collected IC50 values appear next to each entry.
target: Factor Xa (Homo sapiens); construct: TMPRSS2; Matriptase; Hepsin; HGFA; Thrombin; Factor Xa; test: Fluorogenic assay, Factor Xa; type: biochemical; settings: read-out: Factor Xa IC50
Sequence (P00742 235-488 limits assumed): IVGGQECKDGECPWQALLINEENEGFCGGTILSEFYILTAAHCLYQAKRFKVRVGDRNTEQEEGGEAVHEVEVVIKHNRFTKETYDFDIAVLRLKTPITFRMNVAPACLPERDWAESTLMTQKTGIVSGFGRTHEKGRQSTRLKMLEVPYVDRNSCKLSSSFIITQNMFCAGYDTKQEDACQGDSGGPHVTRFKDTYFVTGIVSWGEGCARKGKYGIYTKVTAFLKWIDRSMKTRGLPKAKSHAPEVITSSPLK
Sequence (P00742 41-179 partner limits assumed): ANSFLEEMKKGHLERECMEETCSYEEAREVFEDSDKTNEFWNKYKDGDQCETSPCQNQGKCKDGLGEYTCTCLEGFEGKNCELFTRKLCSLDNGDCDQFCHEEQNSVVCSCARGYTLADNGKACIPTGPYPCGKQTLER
test.readout: IC50 (nM)

{"molecule": "CCC(C)[C@H](NC(C)=O)C(=O)N[C@@H](CCC(N)=O)C(=O)N[C@@H](Cc1c[nH]c2ccccc12)C(=O)N[C@@H](CCCNC(=N)N)C(=O)c1nc2ccccc2s1 (some centres unmarked)", "system.tested": "Factor Xa (Homo sapiens)", "test.readout": "IC50", "reported.measurement": 129}
{"molecule": "CC(=O)N[C@H]1Cc2ccc(cc2)OC/C=C\\C[C@@H](C(=O)N[C@@H](CCCNC(=N)N)C(=O)c2nc3ccccc3s2)NC(=O)[C@H](CC(C)C)NC1=O", "system.tested": "Factor Xa (Homo sapiens)", "test.readout": "IC50", "reported.measurement": 122}
{"molecule": "CC(=O)N[C@H]1Cc2ccc(cc2)OCCCC[C@@H](C(=O)N[C@@H](CCCNC(=N)N)C(=O)c2nc3ccccc3s2)NC(=O)[C@H](Cc2c[nH]c3ccccc23)NC1=O", "system.tested": "Factor Xa (Homo sapiens)", "test.readout": "IC50", "reported.measurement": 9530}
{"molecule": "CC(=O)N[C@H]1CCCCn2cc(nn2)C[C@H](C(=O)N[C@@H](CCCNC(=N)N)C(=O)c2nc3ccccc3s2)NC(=O)[C@H](CC(C)C)NC1=O [VD4118B]", "system.tested": "Factor Xa (Homo sapiens)", "test.readout": "IC50", "reported.measurement": 9540}
{"molecule": "CC(=O)N[C@H](Cc1c[nH]c2ccccc12)C(=O)N[C@@H](CCCCNC(=N)N)C(=O)N[C@@H](CCC(C)C)C(=O)N[C@@H](CCCNC(=N)N)C(=O)c1nc2ccccc2s1", "system.tested": "Factor Xa (Homo sapiens)", "test.readout": "IC50", "reported.measurement": 9.12}

---

target: hepsin (Homo sapiens, UniProt P05981); construct: purchased R&D Systems 4776-SE-010; experiment: HyCoSuL P4-P2 substrate specificity screening, hepsin; format: biochemical; conditions: residue fixed at P2 position; P1-Arg HyCoSuL, 100 μM; best recognized amino acid set to 100%
Sequence (P05981 163-417 limits assumed): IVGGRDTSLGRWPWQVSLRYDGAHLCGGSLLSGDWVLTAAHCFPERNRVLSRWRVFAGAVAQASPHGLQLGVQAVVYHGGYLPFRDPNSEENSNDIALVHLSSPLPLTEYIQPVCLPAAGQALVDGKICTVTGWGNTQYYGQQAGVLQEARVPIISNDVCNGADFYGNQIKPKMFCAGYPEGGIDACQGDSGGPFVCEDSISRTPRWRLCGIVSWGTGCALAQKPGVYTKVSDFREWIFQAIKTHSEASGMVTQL
Sequence (P05981 1-162 partner limits assumed): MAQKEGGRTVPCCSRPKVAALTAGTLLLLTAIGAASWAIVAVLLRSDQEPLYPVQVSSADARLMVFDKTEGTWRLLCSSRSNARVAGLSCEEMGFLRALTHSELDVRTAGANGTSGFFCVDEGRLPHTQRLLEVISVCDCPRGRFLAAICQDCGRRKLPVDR
test.readout: P2 Position Substrate Activity for hepsin (percent substrate cleavage/proteolysis) (%)

{"given.smiles": "Cn1cc(C[C@H](N)C(=O)O)c2ccccc21", "system.tested": "hepsin (Homo sapiens, UniProt P05981)", "reported.measurement": 7.81}
{"given.smiles": "N[C@@H](Cc1ccc(F)cc1)C(=O)O", "system.tested": "hepsin (Homo sapiens, UniProt P05981)", "reported.measurement": 32.86}
{"given.smiles": "CC(C)CC[C@H](N)C(=O)O", "system.tested": "hepsin (Homo sapiens, UniProt P05981)", "reported.measurement": 14.44}
{"given.smiles": "CC(C)[C@H](N)C(=O)O", "system.tested": "hepsin (Homo sapiens, UniProt P05981)", "reported.measurement": 51.85}
{"given.smiles": "N[C@@H](CCCCOCc1ccccc1)C(=O)O", "system.tested": "hepsin (Homo sapiens, UniProt P05981)", "reported.measurement": 0.00}
{"given.smiles": "O=C(O)[C@@H]1CCCCN1", "system.tested": "hepsin (Homo sapiens, UniProt P05981)", "reported.measurement": 10.66}

---

# maps each entry to its pIC50
molecular target: hepsin (Homo sapiens, UniProt P05981); construct: purchased R&D Systems 4776-SE-010; assay: Fluorogenic kinetic enzyme inhibitor assay, hepsin; assay type: biochemical; conditions: read-out: Hepsin IC50
pIC50: −log10 of the molar value.
test.readout: pIC50

{"compound": "CC(=O)N[C@@H](Cc1c[nH]c2ccccc12)C(=O)N[C@@H](Cc1ccccc1)C(=O)N[C@@H](CCCNC(=N)N)C(=O)c1nc2ccccc2s1", "reported.measurement": 8.12}
{"compound": "N=C(N)NCCC[C@H](NC(=O)[C@H](Cc1cccc(F)c1)NC(=O)OCC1c2ccccc2-c2ccccc21)C(=O)c1nc2ccccc2s1", "reported.measurement": 6.46}
{"compound": "CCC(C)[C@H](NC(C)=O)C(=O)N[C@@H](CCC(N)=O)C(=O)N[C@@H](C)C(=O)N[C@@H](CCCNC(=N)N)C(=O)c1nc2ccccc2s1 (stereo partly shown)", "reported.measurement": 8.90}
{"compound": "CC(=O)N[C@@H](CCCCNC(=N)N)C(=O)N[C@@H](CCC(C)C)C(=O)N[C@@H](CCCNC(=N)N)C(=O)c1nc2ccccc2s1", "reported.measurement": 8.94}
{"compound": "CC(=O)NCC(=O)N[C@@H](CCC(N)=O)C(=O)N[C@@H](Cc1ccccc1)C(=O)N[C@@H](CCCNC(=N)N)C(=O)c1nc2ccccc2s1", "reported.measurement": 9.71}
{"compound": "CC(=O)N[C@@H](CO)C(=O)N[C@@H](Cc1cncn1COCc1ccccc1)C(=O)N[C@@H](CC(C)C)C(=O)N[C@H](CCCNC(=N)N)C(=O)c1nc2ccccc2s1", "reported.measurement": 8.83}
{"compound": "CC(=O)N[C@H]1Cc2ccc(cc2)Oc2cccc(c2)C[C@@H](C(=O)N[C@H](CCCNC(=N)N)C(=O)c2nc3ccccc3s2)NC(=O)[C@H](CC(C)C)NC1=O [VD5064A]", "reported.measurement": 8.59}
{"compound": "CCC(C)[C@H](NC(C)=O)C(=O)N[C@H](Cc1cc2ccccc2[nH]1)C(=O)N[C@@H](Cc1ccccc1)C(=O)N[C@@H](CCCNC(=N)N)C(=O)c1nc2ccccc2s1 (stereo partly shown)", "reported.measurement": 7.91}
{"compound": "N=C(N)NCCC[C@H](NC(=O)[C@H](Cc1ccc(F)c(F)c1)NC(=O)OCC1c2ccccc2-c2ccccc21)C(=O)c1nc2ccccc2s1", "reported.measurement": 6.64}
{"compound": "CC(=O)N[C@H]1Cc2ccc(cc2)OCCCC[C@@H](C(=O)N[C@H](CCCNC(=N)N)C(=O)c2nc3ccccc3s2)NC(=O)[C@@H](Cc2c[nH]c3ccccc23)NC1=O [VD4162A]", "reported.measurement": 8.52}
{"compound": "CCC(C)[C@H](NC(C)=O)C(=O)N[C@@H](CCC(N)=O)C(=O)N[C@H](C(=O)N[C@@H](CCCNC(=N)N)C(=O)c1nc2ccccc2s1)C(C)C (stereo partly shown)", "reported.measurement": 9.97}
{"compound": "CC(=O)N[C@@H](CO)C(=O)N[C@@H](Cc1cncn1COCc1ccccc1)C(=O)N[C@@H](CC(C)C)C(=O)N[C@@H](CCCNC(=N)N)C(=O)c1nc2ccccc2s1", "reported.measurement": 8.55}
{"compound": "CC(=O)N[C@@H](CO)C(=O)N[C@@H](CCCCN)C(=O)N[C@@H](CC(C)C)C(=O)N[C@@H](CCCNC(=N)N)C(=O)c1nc2ccccc2s1", "reported.measurement": 9.49}
